system: SF-295 CNS; test: NCI tumour cell line growth inhibition, 48 h
observation.type: TGI

compound	TGI
CC(C)CCC1(CCN)C(=O)NC(=O)NC1=O	> 100 µM
O=C(c1ccncc1)C1C(=O)c2ccccc2C1C1(O)c2ccccc2CC1C(O)c1ccncc1 (stereo unspecified)	> 100 µM
C=C1C[C@@H]2CC[C@@]34C[C@H]5O[C@H]6[C@@H](O3)[C@H]3O[C@H](CC[C@@H]3O[C@H]6[C@@H]5O4)CC(=O)C[C@@H]3[C@@H](OC)[C@@H](C[C@H](O)CN)O[C@H]3C[C@H]3O[C@@H](CC[C@@H]1O2)C[C@@H](C)C3=C	0.839 µM
O=C(/C=C/c1ccccc1)CC(=O)CCC(=O)Nc1ccc(Cl)cc1	> 100 µM
CSC1=Nc2ccccc2N=C(c2ccc(Cl)cc2)C1	> 100 µM

Consider the record given below.
Q: Would you mind telling me what TGI value was observed for CCOP(=O)(/C=C\n1ccc(N)nc1=O)OCC ?
Ans: > 100 µM
